Values from patent US20260242735A1

Exercise: state measured Mean % WT Binding for each of the binders provided.
- assay_target: human CD33 variant D51N (human, UniProt P20138 18-364)
- Sequence (P20138 18-364 D51N limits assumed): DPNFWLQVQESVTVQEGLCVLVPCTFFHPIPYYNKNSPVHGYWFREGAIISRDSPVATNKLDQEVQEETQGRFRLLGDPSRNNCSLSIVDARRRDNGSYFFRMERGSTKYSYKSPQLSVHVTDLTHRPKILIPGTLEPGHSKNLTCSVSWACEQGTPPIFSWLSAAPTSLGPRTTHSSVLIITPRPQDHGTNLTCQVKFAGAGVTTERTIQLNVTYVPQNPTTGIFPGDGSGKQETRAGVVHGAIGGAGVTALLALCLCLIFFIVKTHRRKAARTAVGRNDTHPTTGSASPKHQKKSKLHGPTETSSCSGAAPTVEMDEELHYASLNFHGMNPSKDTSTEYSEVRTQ
- assay_text: flow cytometry, IgG on cells expressing the mutant

>  <binder>
Refmab #1 (antibody, human IgG1, V domains shown, Tested in IgG format; human IgG1 (Absolute Antibody hP67.6, Cat. No. Ab00283-10.0); also called hP67.6) VH: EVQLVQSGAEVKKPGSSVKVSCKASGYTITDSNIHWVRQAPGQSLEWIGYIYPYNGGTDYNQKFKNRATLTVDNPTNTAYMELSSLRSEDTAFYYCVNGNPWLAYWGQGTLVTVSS VL: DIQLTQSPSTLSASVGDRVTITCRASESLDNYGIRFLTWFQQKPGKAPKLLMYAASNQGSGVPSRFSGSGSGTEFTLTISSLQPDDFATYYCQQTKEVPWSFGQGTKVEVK

>  <readout_label>
Mean % WT Binding

>  <result>
99 % of WT

$$$$
>  <binder>
Refmab #2 (antibody, human IgG1, V domains shown, Tested in IgG format; human IgG1 Fc silent (PG-LALA)) VH: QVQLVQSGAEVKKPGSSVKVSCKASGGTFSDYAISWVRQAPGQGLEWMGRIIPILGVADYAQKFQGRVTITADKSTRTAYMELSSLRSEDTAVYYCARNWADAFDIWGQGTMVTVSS VL: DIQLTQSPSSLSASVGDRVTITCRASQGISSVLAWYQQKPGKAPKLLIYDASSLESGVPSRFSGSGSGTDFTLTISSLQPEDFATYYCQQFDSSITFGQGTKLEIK

>  <readout_label>
Mean % WT Binding

>  <result>
96.7 % of WT

$$$$

The following binders each have a reported value; give each one's Mean % WT Binding.
1. Refmab #3 (antibody, human IgG1, V domains shown, Tested in IgG format; human IgG1 Fc silent (PG-LALA)) VH: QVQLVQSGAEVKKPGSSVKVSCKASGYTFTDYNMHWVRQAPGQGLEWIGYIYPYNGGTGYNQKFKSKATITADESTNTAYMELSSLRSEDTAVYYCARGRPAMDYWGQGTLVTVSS VL: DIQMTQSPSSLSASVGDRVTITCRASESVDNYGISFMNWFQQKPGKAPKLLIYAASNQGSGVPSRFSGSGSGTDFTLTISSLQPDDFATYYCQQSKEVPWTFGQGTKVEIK
2. Refmab #4 (antibody, human IgG1, V domains shown, Tested in IgG format; human IgG1 Fc silent (PG-LALA)) VH: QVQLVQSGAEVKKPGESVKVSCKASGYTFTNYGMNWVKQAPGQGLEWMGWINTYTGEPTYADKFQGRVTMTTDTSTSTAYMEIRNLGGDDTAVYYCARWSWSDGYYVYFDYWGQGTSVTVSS VL: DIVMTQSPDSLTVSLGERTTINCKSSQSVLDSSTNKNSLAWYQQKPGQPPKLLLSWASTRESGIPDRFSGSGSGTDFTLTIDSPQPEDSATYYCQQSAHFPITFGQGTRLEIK

["107 % of WT", "76.4 % of WT"]
